Sourced from patent US20240109865A1

assay-system: FGFR3-BAIAP2L1 Ba/F3 cells (Homo sapiens)
Sequence (P22607 23-806 limits assumed, change not shown): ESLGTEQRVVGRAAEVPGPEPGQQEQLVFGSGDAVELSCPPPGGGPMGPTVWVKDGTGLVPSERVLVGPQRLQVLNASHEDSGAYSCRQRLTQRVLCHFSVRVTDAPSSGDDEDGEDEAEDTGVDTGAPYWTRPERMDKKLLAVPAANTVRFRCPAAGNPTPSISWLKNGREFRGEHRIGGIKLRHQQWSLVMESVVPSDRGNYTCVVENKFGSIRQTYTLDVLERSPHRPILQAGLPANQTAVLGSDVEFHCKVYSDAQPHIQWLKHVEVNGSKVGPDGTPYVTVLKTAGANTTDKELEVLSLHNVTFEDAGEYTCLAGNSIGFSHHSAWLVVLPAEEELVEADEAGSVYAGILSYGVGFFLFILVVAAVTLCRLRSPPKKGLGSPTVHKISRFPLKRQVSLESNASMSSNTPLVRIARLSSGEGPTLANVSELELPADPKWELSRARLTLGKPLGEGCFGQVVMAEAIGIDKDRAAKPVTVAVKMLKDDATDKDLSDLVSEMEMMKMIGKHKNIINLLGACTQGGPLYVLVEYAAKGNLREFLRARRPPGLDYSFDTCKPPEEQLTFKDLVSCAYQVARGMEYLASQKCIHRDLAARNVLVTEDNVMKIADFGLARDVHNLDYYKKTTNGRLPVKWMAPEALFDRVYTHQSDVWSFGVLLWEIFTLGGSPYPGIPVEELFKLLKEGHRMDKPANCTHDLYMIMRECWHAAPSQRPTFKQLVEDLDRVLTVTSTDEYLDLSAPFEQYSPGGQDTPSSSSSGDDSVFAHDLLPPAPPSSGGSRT
assay-name: Ba/F3 cell viability assay (CellTiter-Glo 2.0), FGFR3-BAIAP2L1 Ba/F3
Format: cell-based
condition-notes: FGFR3 > FGFR1 selectivity ratio in Ba/F3 FGFR fusion cell based assays
observed-property: Ba/F3 FGFR1/FGFR3 Selectivity

1. Cc1ncc(Cl)c([C@@H](C)Oc2ccc3[nH]nc(-c4cnn(C5CCS(=O)(=O)CC5)c4)c3c2)c1Cl :: 12
2. C[C@@H](Oc1ccc2[nH]nc(-c3ccc(N4CC5(CCCS(=O)(=O)C5)C4)nc3)c2c1)c1c(Cl)cncc1Cl :: 16
3. C[C@@H](Oc1ccc2[nH]nc(-c3cnc(N4CCNCC4)nc3)c2c1)c1c(Cl)cncc1Cl :: 9
4. C[C@@H](Oc1ccc2[nH]nc(-c3ccc(N4CC5(C4)CN(S(C)(=O)=O)C5)nc3)c2c1)c1c(Cl)cncc1Cl :: 14
5. C[C@@H](Oc1ccc2[nH]nc(-c3ccc(N4CCNC(=O)C4)nc3)c2c1)c1c(Cl)cncc1Cl :: 23
6. C[C@@H](Oc1ccc2[nH]nc(-c3cnc(N4CCN(C(=O)N5CCN(C)CC5)CC4)c(F)c3)c2c1)c1c(Cl)cncc1Cl :: 11
